Where these numbers come from: paper PMC9090415

# test target: P. falciparum apicoplast DNA polymerase (Pf-apPOL) (Plasmodium falciparum, UniProt Q8ILY1)
# Sequence (Q8ILY1 entry or part of it): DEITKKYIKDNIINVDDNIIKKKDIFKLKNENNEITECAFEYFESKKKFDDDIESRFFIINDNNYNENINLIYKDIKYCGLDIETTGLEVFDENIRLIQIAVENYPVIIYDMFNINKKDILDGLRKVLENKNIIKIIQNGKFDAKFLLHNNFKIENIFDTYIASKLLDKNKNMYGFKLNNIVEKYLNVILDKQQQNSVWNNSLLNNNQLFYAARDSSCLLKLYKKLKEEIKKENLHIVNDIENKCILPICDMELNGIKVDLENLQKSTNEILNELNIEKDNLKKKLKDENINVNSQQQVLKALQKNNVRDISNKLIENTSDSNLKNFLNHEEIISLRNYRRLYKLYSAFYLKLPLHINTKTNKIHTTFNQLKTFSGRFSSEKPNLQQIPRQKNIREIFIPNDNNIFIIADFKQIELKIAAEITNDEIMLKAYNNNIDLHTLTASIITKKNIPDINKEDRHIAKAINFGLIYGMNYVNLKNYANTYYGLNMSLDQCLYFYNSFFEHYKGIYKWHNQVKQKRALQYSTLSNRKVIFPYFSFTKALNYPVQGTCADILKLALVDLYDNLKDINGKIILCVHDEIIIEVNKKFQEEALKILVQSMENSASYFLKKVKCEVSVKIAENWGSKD
# method: Fluorescence-based high-throughput DNA polymerase assay (molecular beacon), primary screen and dose-response;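 as to % inhibition ApPOL 90': test concentration in µM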
# Format: biochemical
# conditions: DRC-2; 90'; concentration 5
measurement name: % inhibition ApPOL 90' (%)

INSERT INTO assay_data (compound, assay_value) VALUES
  ('O=C(Nc1ccc2c(c1)Cc1cc(NC(=O)c3ccco3)ccc1-2)c1ccco1', 6.46),
  ('O=C1C(=Cc2ccncc2)Oc2c1ccc1c2CN(Cc2ccc3c(c2)OCO3)CO1', -9),
  ('O=C(O)c1nc(-c2ccccc2)nc2c1OCO2', 7),
  ('Cn1nc(C(=O)N2CCc3c(nc4cc(-c5ccccc5)[nH]n4c3=O)C2)c2ccccc21', 23),
  ('CC(=O)Nc1cc(C(=O)NC(C)C)c2ccc(C)nc2c1', 11),
  ('O=C(O)c1ccc(-c2nc3cc(-c4ccc5nc(-c6ccc(C(=O)O)cc6)[nH]c5c4)ccc3[nH]2)cc1', 1.89),
  ('CCN1C(=O)C(=Cc2cccc(OC)c2O)SC1=S', -22),
  ('Cn1nc(-c2nnc(-c3ccccc3F)o2)c2c1CCN(C(=O)c1ccccc1Cl)C2', 27),
  ('O=C(O)CCS(=O)(=O)c1ccc(-c2ccc(S(=O)(=O)CCC(=O)O)cc2)cc1', 8),
  ('COc1ccc(/C=C/c2cc(C(=O)O)c3ccccc3n2)cc1', 36),
  ('CCOc1ccc(/C=C2\N=C(c3cc([N+](=O)[O-])cc([N+](=O)[O-])c3)OC2=O)cc1', 33),
  ('COc1ccc(S(=O)(=O)/N=C2\NC(=O)/C(=C3\C(=O)Nc4ccc([N+](=O)[O-])cc43)S2)cc1', 5),
  ('O=C(NNC(=O)c1ccc(Cl)cc1)C(=O)NNC(=O)c1ccc(Cl)cc1', 13),
  ('O=C(Cn1ccc2c(=O)[nH]ccc21)Nc1ccc(Cl)cc1 [Molecule 36, O=C(Cn1ccc2c1cc[nH]c2=O)Nc1ccc(cc1)Cl]', 20),
  ('O=C1N/C(=N/c2ccccc2Cl)S/C1=C/c1ccc([N+](=O)[O-])o1', 16),
  ('O=C1c2ccccc2C(=O)N1Oc1ccc([N+](=O)[O-])c([N+](=O)[O-])c1', 9.49),
  ('COCC(=O)Nc1c(-c2cccc(F)c2)nc2cc(C)ccn12', 24),
  ('O=[N+]([O-])c1ccc(/C=C/c2ccc3ccccc3n2)o1', 50),
  ('Cc1cc(C)cc(-n2nc3c(c2NC(=O)c2ccco2)CSC3)c1', 21),
  ('O=C(NC(C(Cl)Cl)S(=O)(=O)c1ccccc1)c1ccccc1 (stereo not shown)', 24),
  ('CC(=O)c1cc2c(N)c(/C(N)=N/C#N)sc2nc1C', 1.44),
  ('O=[N+]([O-])/C=C/c1ccc(-c2ccc(Br)cc2)o1', 31),
  ('CCOC(=O)C1=C2c3cc(OC)c(OC)cc3CC(C)(C)N2C(=O)C1=O', -0.605),
  ('CO/N=C(\C(=O)N[C@@H]1C(=O)N2C(C(=O)[O-])=C(CSc3nc(=O)c([O-])nn3C)CSC12)c1csc(N)n1.[Na+].[Na+] (stereo partly shown)', -7),
  ('Cc1cc(C)c(O)c(/N=C/c2cc([N+](=O)[O-])cc(Br)c2O)c1', 3.45),
  ('CCOc1nc2cccc(C(=O)OC(C)OC(=O)OC3CCCCC3)c2n1Cc1ccc(-c2ccccc2-c2nnn[nH]2)cc1 (stereo not shown)', 19),
  ('COc1cccc(Oc2c(C(F)(F)F)oc3cc(OC(=O)N(C)C)ccc3c2=O)c1', 8),
  ('CC1(C)CC(=O)C2=C(C1)OC1=C(C(=O)CC(C)(C)C1)C2c1ccc(O)cc1', -4.67),
  ('COc1ccc2c(c1)C(c1ccccc1OC)CC(=O)O2 (stereo not shown)', 7),
  ('O=C(c1c[nH]c2ncccc12)N1CCCC1 [Molecule 63, O=C(c1c[nH]c2c1cccn2)N1CCCC1]', 10),
  ('N#CC(=NNc1cc(C(F)(F)F)cc(C(F)(F)F)c1)C(=O)c1ccco1', 14);

----------
Below: a set of entries, each annotated with reported % inhibition Apo pol 10'.
# test target: P. falciparum apicoplast DNA polymerase (Pf-apPOL) (Plasmodium falciparum, UniProt Q8ILY1)
# method: Fluorescence-based high-throughput DNA polymerase assay (molecular beacon), primary screen and dose-response
# Type: biochemical
# conditions: DRC-1; 10'; concentration 80
measurement name: % inhibition Apo pol 10' (%)

INSERT INTO measurements (compound, measurement_name, assay_value) VALUES
  ('O=C(c1c[nH]c2ncccc12)N1CCCC1 [Molecule 63, O=C(c1c[nH]c2c1cccn2)N1CCCC1]', '% inhibition Apo pol 10''', 75.2483),
  ('O=C(Cn1ccc2c(=O)[nH]ccc21)Nc1ccc(Cl)cc1 [Molecule 36, O=C(Cn1ccc2c1cc[nH]c2=O)Nc1ccc(cc1)Cl]', '% inhibition Apo pol 10''', 79.648),
  ('Cc1ccc(C)n1-c1ccc(C(=O)NNC(=O)c2ccc3nccnc3c2)cc1 [Molecule 53]', '% inhibition Apo pol 10''', 83.7947),
  ('CC(=O)Nc1cc(C(=O)NC(C)C)c2ccc(C)nc2c1 [KU0206312]', '% inhibition Apo pol 10''', 85.3418),
  ('O=C(Nc1c2c(nn1-c1ccc(Oc3ccccc3)cc1)CSC2)c1ccco1 [KU0055927]', '% inhibition Apo pol 10''', 86.5336),
  ('O=C(NCC1CCN(C2CCCC2)CC1)C(=O)NC1CCCC1 [KU0199596]', '% inhibition Apo pol 10''', 62.5585),
  ('O=c1cc(CN2CCCCC2)c2cc3c(cc2o1)OCO3 [Molecule 56, O=c1cc(CN2CCCCC2)c2c(o1)cc1c(c2)OCO1]', '% inhibition Apo pol 10''', 89.8826),
  ('Cc1ccc(-n2nnc(C(=O)O)c2-c2ccccn2)c(F)c1 [Molecule 54, Cc1ccc(c(c1)F)n1nnc(c1c1ccccn1)C(=O)O]', '% inhibition Apo pol 10''', 49.8653),
  ('COc1cccc(Oc2c(C(F)(F)F)oc3cc(OC(=O)N(C)C)ccc3c2=O)c1 [Molecule 52]', '% inhibition Apo pol 10''', 57.2765),
  ('O=C(Nc1cccc(C(=O)Nc2ccc(S(=O)(=O)[O-])c3cc(S(=O)(=O)[O-])cc(S(=O)(=O)[O-])c23)c1)Nc1cccc(C(=O)Nc2ccc(S(=O)(=O)[O-])c3cc(S(=O)(=O)[O-])cc(S(=O)(=O)[O-])c23)c1.[Na+].[Na+].[Na+].[Na+].[Na+].[Na+] [Molecule 39]', '% inhibition Apo pol 10''', 99.222),
  ('CC1(C)CC(=O)C2=C(C1)OC1=C(C(=O)CC(C)(C)C1)C2c1ccc(O)cc1 [KU0194226]', '% inhibition Apo pol 10''', 84.2344),
  ('COCCN(CCOC)Cc1c(O)ccc2c1OC(=Cc1cc(Br)ccc1OC)C2=O [KU0198471]', '% inhibition Apo pol 10''', 100.142),
  ('CSCCC(C)(O)CNC(=O)C1CC1 (stereo not shown) [KU0200150]', '% inhibition Apo pol 10''', 39.3482),
  ('COc1ccc(C(=O)Nc2cccc(-c3nc4ncccc4o3)c2)cc1[N+](=O)[O-] [KU0063313]', '% inhibition Apo pol 10''', 70.0671),
  ('Cc1ccc2c(C(=O)NCCc3cccnc3)cc(NC(=O)C(C)C)cc2n1 [KU0206096]', '% inhibition Apo pol 10''', 89.4827),
  ('COc1ccc2c(c1)CCc1c-2nc2ccc(Br)cc2c1C(=O)O [KU0059417]', '% inhibition Apo pol 10''', 75.6745);

----------
# test target: bacteriophage T4 DNA polymerase (Enterobacteria phage T4, UniProt P04415)
# Construct: made in house
# Sequence (P04415 1-898): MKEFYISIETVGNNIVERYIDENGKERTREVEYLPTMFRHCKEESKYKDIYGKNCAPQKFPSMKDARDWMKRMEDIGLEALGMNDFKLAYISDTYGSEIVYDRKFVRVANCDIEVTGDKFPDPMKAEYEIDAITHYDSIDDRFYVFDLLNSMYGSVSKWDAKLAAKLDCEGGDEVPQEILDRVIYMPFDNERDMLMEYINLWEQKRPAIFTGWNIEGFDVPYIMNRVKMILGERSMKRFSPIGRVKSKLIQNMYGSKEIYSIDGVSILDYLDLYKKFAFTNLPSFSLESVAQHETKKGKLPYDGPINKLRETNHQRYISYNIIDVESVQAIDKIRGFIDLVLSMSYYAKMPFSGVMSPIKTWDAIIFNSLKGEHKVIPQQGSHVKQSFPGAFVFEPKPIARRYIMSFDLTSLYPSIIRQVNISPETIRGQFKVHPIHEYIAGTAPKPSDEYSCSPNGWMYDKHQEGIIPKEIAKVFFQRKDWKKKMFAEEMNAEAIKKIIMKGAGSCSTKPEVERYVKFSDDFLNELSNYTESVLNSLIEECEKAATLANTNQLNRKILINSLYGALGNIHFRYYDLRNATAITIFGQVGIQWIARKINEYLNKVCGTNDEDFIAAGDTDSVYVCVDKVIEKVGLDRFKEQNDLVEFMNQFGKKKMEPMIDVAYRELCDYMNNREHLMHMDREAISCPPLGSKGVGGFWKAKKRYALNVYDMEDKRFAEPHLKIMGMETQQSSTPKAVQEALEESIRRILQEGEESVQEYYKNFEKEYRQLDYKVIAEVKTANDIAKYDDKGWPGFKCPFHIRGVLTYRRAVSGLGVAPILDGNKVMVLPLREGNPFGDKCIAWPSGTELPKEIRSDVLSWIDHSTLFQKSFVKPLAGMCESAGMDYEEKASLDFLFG
# method: Counter-screen against bacteriophage T4 DNA polymerase
# Type: biochemical
# conditions: DRC-2; 180'; concentration 40
Here the recorded % inhibition T4 180' is given for each entry.
measurement name: % inhibition T4 180' (%)

INSERT INTO assay_data (molecule, assay_value) VALUES
  ('CC(=O)c1cc2c(N)c(/C(N)=N/C#N)sc2nc1C [KU0015866]', -16),
  ('CC1(C)CC(=O)C2=C(C1)OC1=C(C(=O)CC(C)(C)C1)C2c1ccc(O)cc1 [KU0194226]', 12),
  ('Cc1nc(/N=N/c2ccc(C(=O)[O-])cc2)c(COP(=O)([O-])[O-])c(C=O)c1O.[Na+].[Na+].[Na+] [KU0261395]', -11),
  ('COc1ccc(CNC(=O)Cn2nc3c(c2NC(=O)Cc2cccs2)CSC3)cc1 [Molecule 55]', 28);
